Numbers sourced from patent US20070213301A1.

I'd be grateful if you could share measured EC50 for these entries.
# System: HCV replicon
# PROCEDURE DETAILS: HCV replicon replication assay (NPTII ELISA)
# Assay type: cell-based, Hepatitis C virus (Huh-7 cells)
# REPORTED CONDITIONS: Hepatitis C virus, Huh-7, 72 h, inhibition of HCV replicon replication in Huh-7 HCV replicon-containing cells, three days incubation, NPT level by ELISA; read-out: EC50

GET /values?readout=EC50&system=HCV replicon&item= CCCCOc1ccc(N(C(N)=O)c2nc(-c3ccccn3)cs2)cc1C(F)(F)F [Compound 103]
< 1000 nM

Queued: CCCCCCCCc1ccc(N(C(=O)C(N)C(C)C)c2nc(-c3cccnc3)c(F)s2)cc1C(F)(F)F (centres unmarked) [Compound 180]
< 1000 nM

Queued: CCCCCOc1ccc(N(C(=O)C2CCCCC2)c2nc(-c3cccnc3)cs2)cc1C(F)(F)F [Compound 32]
< 1000 nM

Queued: NC(=O)N(c1ccc(OCC2CCCCC2)c(F)c1)c1nc(-c2cccnc2)cs1 [Compound 119]
< 1000 nM

Queued: CCCCOc1ccc(N(C(N)=O)c2nc(-c3ccc(C)nc3)cs2)cc1C(F)(F)F [Compound 132]
< 1000 nM

Queued: CCCCCCCCc1ccc(N(C(=O)[C@@H](N)C(C)C)c2nc(-c3ccc(O)nc3)cs2)cc1C(F)(F)F [Compound 157]
1000 to 10000 nM

Queued: CCCCCCCOc1ccc(N(C(=O)c2cc(C)on2)c2nc(-c3nc4ccccc4s3)cs2)cc1 [Compound 92]
1000 to 10000 nM

Queued: CCCCCCCCc1ccc(N(C(=O)OCOP(=O)(O)O)c2nc(-c3cccnc3)c(F)s2)cc1C(F)(F)F [Compound 187]
< 1000 nM

###

I'd be grateful if you could share measured EC50 for these entries.
# System: HCV replicon
# PROCEDURE DETAILS: HCV replicon replication assay (NPTII ELISA)
# Assay type: cell-based, Hepatitis C virus (Huh-7 cells)
# REPORTED CONDITIONS: Hepatitis C virus, Huh-7, 72 h, inhibition of HCV replicon replication in Huh-7 HCV replicon-containing cells, three days incubation, NPT level by ELISA; read-out: EC50

GET /values?readout=EC50&system=HCV replicon&item= CCCCCCCCOc1ccc(N(C(=O)C(C)OC(C)=O)c2nc(-c3ccc(C)nc3)cs2)cc1 (centres unmarked)
< 1 µM

Queued: CCCCCOc1ccc(N(C(C)=O)c2nc(CNC(C)=O)cs2)cc1C(F)(F)F
1 to 10 µM

Queued: CCCCCOc1ccc(N(C(N)=O)c2nc(-c3ccc(F)cc3F)cs2)cc1C(F)(F)F
< 1 µM

Queued: CCCCCCCCOc1ccc(N(C(=O)NCC)c2nc(-c3cccnc3)cs2)cc1
> 10 µM

Queued: CCCCCOc1ccc(N(C(=O)c2cccnc2)c2nc(-c3nc4ccccc4s3)cs2)cc1C(F)(F)F
< 1 µM

Queued: CCCCCN(C)c1ccc(N(C(=O)c2cc(C)on2)c2nc(-c3cccnc3)cs2)cc1C(F)(F)F
< 1 µM

Queued: CCCCCCCCOc1ccc(N(C(=O)NCC(=O)O)c2nc(-c3cccnc3)c(F)s2)cc1C(F)(F)F
< 1 µM

Queued: CCCCCN(C)c1ccc(N(C(=O)COC(C)=O)c2nc(-c3cccnc3)cs2)cc1C(F)(F)F
< 1 µM
